experimentalTarget: T1, human CD3 epsilon (human, UniProt P07766 23-126, limits assumed)
T1 construct: Used as a soluble protein target in panning; the construct is not described; also called hCD3; hCD3 epsilon
T1 sequence (P07766 23-126 limits assumed): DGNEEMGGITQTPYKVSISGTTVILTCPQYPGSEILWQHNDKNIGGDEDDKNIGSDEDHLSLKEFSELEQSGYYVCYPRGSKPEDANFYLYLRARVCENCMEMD
experiment: flow cytometry on Expi293 cells overexpressing hCD3e, antibody at 100 nM; bar = MFI ratio (OE/parent), 1 = parent cells
recordedEndpoint: binding result

CD3-252-5 (VHH, also called CD3-252-005) VHH: EVQLVESGGGLVQPGGSLRLSCAASGRISNINIMGWFRQAPGKEREFVAAISWNSGTTRYADSVKGRFTISADNSKNTAYLQMNSLKPEDTAVYYCASQGPGLYGSGSYLRYWGQGTLVTVSS; binds
CD3-252-29 (VHH, also called CD3-252-029) VHH: EVQLVESGGGLVQPGGSLRLSCAASGTTFRINVMGWFRQAPGKEREFVAAITSSGSSTLYADSVKGRFTISADNSKNTAYLQMNSLKPEDTAVYYCARGGGYHRLWGQGTLVTVSS; binds
CD3-252-22 (VHH, also called CD3-252-022) VHH: EVQLVESGGGLVQPGGSLRLSCAASGNIFTRHIMGWFRQAPGKEREFVAAITNGGSTKYADSVKGRFTISADNSKNTAYLQMNSLKPEDTAVYYCARQDYYDSSGHIRYWGQGTLVTVSS; binds
CD3-252-10 (VHH, also called CD3-252-010) VHH: EVQLVESGGGLVQPGGSLRLSCAASGRSLYDRAYVMGWFRQAPGKEREFVAAINRSGSALYADSVKGRFTISADNSKNTAYLQMNSLKPEDTAVYYCAAKAVTSRDHEWGQGTLVTVSS; binds

Proceeding to the next binder to report its binding result.
// binding result value for CD3-252-24 (VHH, also called CD3-252-024) VHH: EVQLVESGGGLVQPGGSLRLSCAASGITFKRYVMGWFRQAPGKEREFVAAITNGGSTKYADSVKGRFTISADNSKNTAYLQMNSLKPEDTAVYYCARDLSAGPGKAVYWGQGTLVTVSS : binds
